- run description: Release of nitric oxide in vitro (Griess reagent, nitrite)
- test conditions: 10^−4 mol/L tested substance, phosphate buffer pH 7.4, cysteine 5 mmol/L, 37° C., 1 h; as nitrite
endpoint label: Amount of Released No (µM)
Note: unit µM is implicit; provide only the numeric part.

// query Any idea what its Amount of Released No is? The compound is COc1cc(OC)c2c(=O)[nH]c(-c3cc(C)c(OCCOC(=O)C(O)CC(=O)OCc4c(-c5ccccc5)no[n+]4[O-])c(C)c3)nc2c1 (stereo not drawn) [Compound H113]
// result 45.63

// query Any idea what its Amount of Released No is? The compound is COc1cc(OC)c2c(=O)[nH]c(-c3cc(C)c(OCCOC(=O)CNC(=O)CCCO[N+](=O)[O-])c(C)c3)nc2c1 [Compound H109]
// result 1.49

Turning to the following compound.
// query Any idea what its Amount of Released No is? The compound is O=[N+]([O-])O[C@@H]1CO[C@H]2[C@@H]1OC[C@@H]2O [Isosorbide Mononitrate, Isosorbide mononitrate, reference compound]
// result 3.31

###

- run description: Plasma stability in vitro, human plasma
- test conditions: within 2 h
endpoint label: stability in human plasma

// query Any idea what its stability in human plasma is? The compound is COc1cc(OC)c2c(=O)[nH]c(-c3cc(C)c(OCCOC(=O)CCC(CO[N+](=O)[O-])O[N+](=O)[O-])c(C)c3)nc2c1 (centres unmarked) [Compound H108]
// result good stability

// query Any idea what its stability in human plasma is? The compound is COc1cc(OC)c2c(=O)[nH]c(-c3cc(C)c(OCCOC(=O)c4cccc(CO[N+](=O)[O-])c4)c(C)c3)nc2c1 [Compound H102]
// result good stability

// query Any idea what its stability in human plasma is? The compound is COc1cc(OC)c2c(=O)[nH]c(-c3cc(C)c(OCCOC(=O)ONS(=O)(=O)c4ccc(C)s4)c(C)c3)nc2c1 [Compound H103]
// result good stability

// query Any idea what its stability in human plasma is? The compound is COc1cc(OC)c2c(=O)[nH]c(-c3cc(C)c(OCCO[N+](=O)[O-])c(C)c3)nc2c1 [Compound H101]
// result good stability

Turning to the following compound.
// query Any idea what its stability in human plasma is? The compound is COc1cc(OC)c2c(=O)[nH]c(-c3cc(C)c(OCCOC(=O)ONS(=O)(=O)c4ccc(C)o4)c(C)c3)nc2c1 [Compound H104]
// result good stability

###

- run description: Plasma stability in vitro, mouse plasma
- test conditions: CD-1 mice plasma, 2 μM, 37° C., 10 min; in % (unit assumed)
endpoint label: Content of Tested Substance (n = 2)
The answer should be written as a number, with no unit following it.

Past entries and their recorded results:
// query Any idea what its Content of Tested Substance (n = 2) is? The molecule is COc1cc(OC)c2c(=O)[nH]c(-c3cc(C)c(OCCOC(=O)c4cccc(CO[N+](=O)[O-])c4)c(C)c3)nc2c1
// result 10.8

// query Any idea what its Content of Tested Substance (n = 2) is? The molecule is COc1cc(OC)c2c(=O)[nH]c(-c3cc(C)c(OCCOC(=O)CCC(CO[N+](=O)[O-])O[N+](=O)[O-])c(C)c3)nc2c1 (centres unmarked)
// result 0.5

More entries:
// query Any idea what its Content of Tested Substance (n = 2) is? The molecule is COc1cc(OC)c2c(=O)[nH]c(-c3cc(C)c(OCCOC(=O)ONS(=O)(=O)c4ccc(C)o4)c(C)c3)nc2c1
// result 0.5

// query Any idea what its Content of Tested Substance (n = 2) is? The molecule is COc1cc(OC)c2c(=O)[nH]c(-c3cc(C)c(OCCO[N+](=O)[O-])c(C)c3)nc2c1
// result 101.4

// query Any idea what its Content of Tested Substance (n = 2) is? The molecule is COc1cc(OC)c2c(=O)[nH]c(-c3cc(C)c(OCCOC(=O)ONS(=O)(=O)c4ccc(C)s4)c(C)c3)nc2c1
// result 0.0
